Known inhibition of a selection of compounds
Test Name: H1N1 influenza NS1A inhibitors, functional cell based assay (AID 504329)
Condition Set: percent inhibition, at 12.5 µM, active compounds read high
The campaign covered roughly 340,000 compounds. About 1,000 (0.29%) were called active. The list is a sample of the results. Entries with a potency or affinity are not part of this list.

Compound	inhibition [%]
CCn1cc([N+](=O)[O-])c(C(=O)N2CCCc3ccccc32)n1	4.06
COc1ccc(/C(=N/Nc2ncnc3ccccc23)C(=O)O)cc1	5.64
CCCCNC(=S)Nc1ccc2nc(N3CCN(CC)CC3)cc(C)c2c1	9.06
CCOc1ccc(NC(=O)C2CCCN2C(=O)NC2CCCCC2)cc1 (centres undefined)	3.03
Cc1ccc([N+](=O)[O-])c2cccnc12	-5.17
Cc1ccc2[nH]c3nc(SCC#N)nnc3c2c1	3.03
Cc1ccccc1NCc1ccc(O)c2ncccc12	11.8
Cc1cccc(NCc2ccc(O)c3ncccc23)c1	-1.23
CC(=O)Nc1ccc(Br)cc1C(=O)C(=O)O	2.32

###

Test Name: H1N1 influenza NS1A inhibitors, functional cell based assay (AID 504329)
Condition Set: percent inhibition, at 12.5 µM, active compounds read high
The whole screen tested about 340,000 compounds, of which about 1,000 (0.29%) were called active. Not all results are given here. Measured potencies and affinities stand elsewhere.

Molecule	Units	inhibition
Cc1ccnc(Nc2nc3ccccc3o2)n1	%	-3.68
NC(=O)c1nsc(C(=O)N(c2ccc(F)cc2)C(C(=O)NC2CCCC2)c2ccncc2)c1N (stereo not given)	%	7.29
CC(=O)c1ccc(N(C)C)c2c(N(C)C)cccc12	%	-6.19
CCN(CC(=O)Nc1c(F)cccc1F)C(=O)CSc1ccccc1	%	-8.64
C=CCNC(=S)N/N=C(\C)c1cccnc1	%	1.12
O=C(Nc1nc(-c2ccccn2)cs1)c1ccc(Cl)s1	%	12.2
COc1ccc2nc(-c3ccccn3)[nH]c2c1	%	-6.69
COc1ccccc1C(=O)NC(=O)COC(=O)c1ccc(Cl)cc1[N+](=O)[O-]	%	11.3
C=C(CC)C(=O)c1ccc(OCC(=O)O)c(Cl)c1Cl	%	0.79
COc1cccc(-c2ccc(NC(=O)C3CCCN(CCCn4nc(C)cc4C)C3)cc2)c1 (stereo not given)	%	3.69
C/C(=N\NC(=S)Nc1ccc(C)cc1)c1cccc(N)c1	%	3.24
CCCCCSc1cc(OC)c(CCN(C)C)cc1OC	%	10.3
CCc1cccc(CC)c1NC(=S)NCCc1ccc(O)c(O)c1	%	9.59
O=S(=O)(NN1CCOCC1)c1ccc(Br)cc1	%	-5.55
CN(C)c1ccc(/C=N/Nc2nc3ccccc3o2)cc1	%	-0.4
Cc1[nH]c2ccccc2c1C(=O)C(=O)N1CC(C)OC(C)C1 (stereo not given)	%	-0.55
C/C(=N\Nc1nc2ccccc2s1)c1cccs1	%	-10
CCN(CC)Cc1ccccn1	%	0.25
O=C(COc1ccc2ccccc2c1)N1CCN(C(=O)c2ccco2)CC1	%	-12.2
O=CN1CCc2scc[n+]2-c2ccccc21	%	-18.5
Cc1ccc2nc(-c3cccc(S(=O)(=O)N4CCCC4)c3)cn2c1	%	-1.58
Cc1ccc(NC(=O)c2cn(-c3cccc(C)n3)cn2)cc1	%	-6.72
COc1ccc(CCN2CC(C(=O)Nc3ccccc3F)CC2=O)cc1OC (stereo not given)	%	-13.5
OCCN(Cc1ccccc1)Cc1ncccc1O	%	-15.6
C=CCc1c(C)[nH]c(=O)[nH]c1=O	%	-3.62
CC(=NNc1nc2ccccc2s1)c1ccncn1	%	6.3
c1ccc(CN2CCC(CNc3ncnc4ccccc34)C2)cc1 (stereo not given)	%	-2.71
CC(=O)Nc1ccc(C=NNc2ccc(S(=O)(=O)Nc3ccccc3C(=O)O)cc2[N+](=O)[O-])cc1	%	15.1
Cc1ccc(-c2csc(NC(=O)c3ccc([N+](=O)[O-])o3)n2)cc1	%	6.86
O=C(Nc1nc(-c2ccccn2)cs1)c1ccc2c(c1)OCCO2	%	4.21
CC(=O)c1nn(-c2cccc(C)c2)cc1C(=O)c1cccc(Br)c1	%	2.16
COc1ccccc1NS(=O)(=O)c1ccc(N/N=C/c2c(C)nn(-c3ccccc3)c2N2CCCC2)c([N+](=O)[O-])c1	%	8.44
COc1ccc(NC(=O)CSc2nnc(C)c(=O)n2N)cc1	%	3.72
Cc1ccc(NC(=S)NNc2ccc([N+](=O)[O-])cc2S(=O)(=O)Nc2ccccc2C(=O)O)cc1C	%	26.1
COc1cccc(NC(=O)CSc2nnc(C)s2)c1	%	-8.01
